molecular target: UniProtKB P32305; assay: Binding affinity towards 5-hydroxytryptamine receptor 7 on rat hypothalamus membranes using [3H]5-CT as radioligand.; type: tissue-based, Membrane
endpoint: Ki

compound: CC(C)C1CCN(CCCCCN2C(=O)c3cccc4cccc2c34)CC1
Ki: > 1000 nM
--
compound: COc1ccccc1N1CCN(CCCCCCN2C(=O)c3cccc4cccc2c34)CC1
Ki: > 1000 nM
--
compound: CC1CCN(CCCCCN2c3cccc4cccc(c34)S2(=O)=O)CC1
Ki: > 10000 nM
--
compound: O=C1c2cccc3cccc(c23)N1CCCCN1CCC(c2ccccc2)CC1
Ki: > 1000 nM

List Ki for every entry below, keeping the order given.
1. CC1CCN(CCC2CCCN2S(=O)(=O)c2cccc(O)c2)CC1 (single isomer, unassigned)
2. CC1CCN(CCCCCCN2c3cccc4cccc(c34)S2(=O)=O)CC1
3. CN1CCN(CCCCN2C(=O)c3cccc4cccc2c34)CC1
4. O=C1c2cccc3cccc(c23)N1CCCCCN1CC=C(c2ccccc2)CC1

A:
["31.6 nM", "> 10000 nM", "> 10000 nM", "> 1000 nM"]

----------
What Ki was measured for each of the following?
target: 5-hydroxytryptamine receptor 7 (Homo sapiens, UniProt P34969); experiment: Non-selective inhibitory activity was determined against 5-hydroxytryptamine 7 receptor
Sequence (P34969 whole entry): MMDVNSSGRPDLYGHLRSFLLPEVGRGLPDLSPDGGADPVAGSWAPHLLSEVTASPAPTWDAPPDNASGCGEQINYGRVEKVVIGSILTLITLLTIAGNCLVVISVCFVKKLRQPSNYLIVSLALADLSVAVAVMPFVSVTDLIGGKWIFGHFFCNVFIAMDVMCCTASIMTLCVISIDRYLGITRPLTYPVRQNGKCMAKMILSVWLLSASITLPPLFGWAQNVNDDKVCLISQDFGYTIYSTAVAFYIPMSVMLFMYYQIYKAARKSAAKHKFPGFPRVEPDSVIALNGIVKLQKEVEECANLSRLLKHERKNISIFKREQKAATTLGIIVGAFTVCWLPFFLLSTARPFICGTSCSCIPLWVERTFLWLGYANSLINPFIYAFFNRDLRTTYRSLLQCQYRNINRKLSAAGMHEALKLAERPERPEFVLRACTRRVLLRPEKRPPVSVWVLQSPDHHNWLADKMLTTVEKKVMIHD

Study these solved cases before continuing.
compound: CC(C)(C)[C@@]1(O)CCN2C[C@@H]3c4ccccc4CCc4cccc(c43)[C@H]2C1
Ki: 0.0631 µM
//
compound: CN1C[C@@H](NS(=O)(=O)N(C)C)C[C@@H]2c3cccc4c3c(cn4C)C[C@H]21
Ki: 0.00794 µM
//
compound: Cc1nc2sccn2c(=O)c1CCN1CCC(=C(c2ccc(F)cc2)c2ccc(F)cc2)CC1
Ki: 0.0158 µM

Go through the list and state Ki for each entry.
1. CCC(CO)NC(=O)[C@@H]1C=C2c3cccc4c3c(cn4C)C[C@H]2N(C)C1 (single isomer, unassigned) [METHYSERGIDE]
2. CN1CCC(=C2c3ccccc3C=Cc3ccccc32)CC1
3. CCN(CC)C(=O)[C@@H]1C=C2c3cccc4[nH]c(Br)c(c34)C[C@H]2N(C)C1

A:
["0.0126 µM", "0.0501 µM", "0.01 µM"]

----------
Kindly supply the reported Ki values for the records listed here.
target: 5-hydroxytryptamine receptor 7 (Rattus norvegicus); experiment: Binding affinity towards 5-hydroxytryptamine receptor 7 on rat hypothalamus membranes using [3H]5-CT as radioligand.; format: tissue-based, Membrane

Solved cases (10 shown):
sample smiles: O=C1c2cccc3cccc(c23)N1CCCCN1CCN(c2ccccc2)CC1
obs value: 0.631 µM
//
sample smiles: O=C1c2cccc3cccc(c23)N1CCCCN1CCC(C2CCCCC2)CC1
obs value: > 1 µM
//
sample smiles: O=S1(=O)c2cccc3cccc(c23)N1CCCCN1CCCCC1
obs value: > 10 µM
//
sample smiles: CN1CCN(CCCCN2c3cccc4cccc(c34)S2(=O)=O)CC1
obs value: > 10 µM
//
sample smiles: CC1CCN(CCCCN2c3cccc4cccc(c34)S2(=O)=O)CC1
obs value: > 10 µM
//
sample smiles: COc1ccccc1N1CCN(CN2C(=O)c3cccc4cccc2c34)CC1
obs value: > 10 µM
//
sample smiles: Cn1ccnc1SCCCCN1C(=O)c2cccc3cccc1c23
obs value: > 10 µM
//
sample smiles: O=C1c2cccc3cccc(c23)N1CCCCCCN1CCN(c2ccccc2)CC1
obs value: > 1 µM
//
sample smiles: O=C1c2cccc3cccc(c23)N1CCCCCN1CCN(C2CCCCC2)CC1
obs value: > 10 µM
//
sample smiles: CC1CCN(CCCCN2C(=O)c3cccc4cccc2c34)CC1
obs value: > 1 µM

Q: 5-hydroxytryptamine receptor 7 (Rattus norvegicus) / Ki / `O=C1c2cccc3cccc(c23)N1CN1CCN(c2ccccc2)CC1` : value?
A: > 10 µM

----------
target: 5-hydroxytryptamine receptor 7 (Homo sapiens, UniProt P34969); experiment: Binding affinity towards human recombinant 5-hydroxytryptamine 7 receptor was determined using [3H]5-CT as radioligand
endpoint: Ki (µM)
Answers are plain numbers, in µM.

Q: Fill blank: measured Ki of the molecule O=C1Nc2cccc3c2C1(CCCCN1CCN(C2CCCCC2)CC1)CCC3 (stereo unspecified) is ____.
A: 100

----------
Provide the recorded pKi for the entries that follow.
biological target: 5-hydroxytryptamine receptor 7 (Rattus norvegicus, UniProt P32305); test: Binding affinity towards 5-hydroxytryptamine receptor 7 on rat hypothalamus membranes using [3H]5-CT as radioligand.; type: tissue-based, Membrane
Sequence (P32305 whole entry): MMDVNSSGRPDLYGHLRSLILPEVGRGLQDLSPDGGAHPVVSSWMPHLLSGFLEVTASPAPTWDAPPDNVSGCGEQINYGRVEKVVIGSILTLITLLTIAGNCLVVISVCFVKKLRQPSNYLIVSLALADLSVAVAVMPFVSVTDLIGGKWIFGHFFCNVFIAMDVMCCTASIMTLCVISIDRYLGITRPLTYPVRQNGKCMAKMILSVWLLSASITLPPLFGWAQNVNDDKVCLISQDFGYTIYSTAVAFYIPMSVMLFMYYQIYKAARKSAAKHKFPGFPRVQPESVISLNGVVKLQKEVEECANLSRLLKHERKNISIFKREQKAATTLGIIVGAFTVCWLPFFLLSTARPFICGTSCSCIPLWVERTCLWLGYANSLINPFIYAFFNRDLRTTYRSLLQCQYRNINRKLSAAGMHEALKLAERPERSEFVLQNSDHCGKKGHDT
pKi: −log10 of the molar value.

For orientation, consider the following solved cases.
sample smiles: O=C1c2cccc3cccc(c23)N1CCCCN1CC=C(c2ccccc2)CC1
pKi: < 6.00
//
sample smiles: O=C1c2cccc3cccc(c23)N1CCCCN1CCN(C2CCCCC2)CC1
pKi: < 5.00
//
sample smiles: O=S1(=O)c2cccc3cccc(c23)N1CCCCCN1CCC(C2CCCCC2)CC1
pKi: < 5.00
//
sample smiles: O=C1c2cccc3cccc(c23)N1CCCN1CCN(c2ccccc2)CC1
pKi: < 5.00
//
sample smiles: O=C1c2cccc3cccc(c23)N1CCCCN1CCCCC1
pKi: < 5.00

Proceeding to the next molecule to report its pKi.
Q: Sample `O=S1(=O)c2cccc3cccc(c23)N1CCCCCCN1CCN(c2ccccc2)CC1` — what was its pKi?
A: < 6.00

Recorded values, source ChEMBL document CHEMBL1145937.
